biological target: T1, human nerve growth factor (human, UniProt P01138 122-241); experiment: BIAcore SPR screen, Fab over immobilised human NGF; KD calculated from koff with kon 4e4 M-1s-1
T1 construct: Immobilised on CM5 chips for BIAcore, soluble in neuron survival assays; also called human NGF; hNGF
T1 sequence (P01138 122-241 limits assumed): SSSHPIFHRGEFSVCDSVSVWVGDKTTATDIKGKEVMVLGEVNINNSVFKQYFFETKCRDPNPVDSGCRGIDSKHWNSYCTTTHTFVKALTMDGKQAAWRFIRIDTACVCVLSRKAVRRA
pKd: −log10 of the molar value.

binder | pKd
8L2-6D5 Fab with CDR H3 mutation Y107F (Fab, V domains shown, See note of m8) VH: QVQLQESGPGLVKPSETLSLTCTVSGFSLIGYDINWIRQPPGKGLEWIGMIWGDGTTDYNSALKSRVTISKDTSKNQFSLKLSSVTAADTAVYYCARGGYYYGTSYFFDYWGQGTLVTVS VL: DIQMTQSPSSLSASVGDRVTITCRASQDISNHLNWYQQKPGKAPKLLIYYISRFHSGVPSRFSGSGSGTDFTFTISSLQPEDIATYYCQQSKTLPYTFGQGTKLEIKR | 7.46
8L2-6D5 Fab with CDR H3 mutation Y110S (Fab, V domains shown, See note of m8) VH: QVQLQESGPGLVKPSETLSLTCTVSGFSLIGYDINWIRQPPGKGLEWIGMIWGDGTTDYNSALKSRVTISKDTSKNQFSLKLSSVTAADTAVYYCARGGYYYGTSYYFDSWGQGTLVTVS VL: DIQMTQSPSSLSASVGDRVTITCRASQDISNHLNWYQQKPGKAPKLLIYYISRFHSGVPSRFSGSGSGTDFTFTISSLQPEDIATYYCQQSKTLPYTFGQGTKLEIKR | 7.43
8L2-6D5 (CDR-grafted antibody with framework mutation V71K) (Fab, V domains shown, Fab (human IgG2 CH1 + C-kappa, His tag at heavy chain C terminus); also called 8L2-6D5 Fab; 8L2-6D5 (control)) VH: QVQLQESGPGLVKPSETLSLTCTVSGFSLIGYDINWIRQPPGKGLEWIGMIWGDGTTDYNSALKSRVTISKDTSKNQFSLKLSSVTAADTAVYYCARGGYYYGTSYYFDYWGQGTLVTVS VL: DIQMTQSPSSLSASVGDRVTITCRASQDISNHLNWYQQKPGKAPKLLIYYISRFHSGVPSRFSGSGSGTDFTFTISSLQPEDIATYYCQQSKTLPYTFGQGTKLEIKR | 7.60
8L2-6D5 Fab with CDR H3 mutation Y106T (Fab, V domains shown, See note of m8) VH: QVQLQESGPGLVKPSETLSLTCTVSGFSLIGYDINWIRQPPGKGLEWIGMIWGDGTTDYNSALKSRVTISKDTSKNQFSLKLSSVTAADTAVYYCARGGYYYGTSTYFDYWGQGTLVTVS VL: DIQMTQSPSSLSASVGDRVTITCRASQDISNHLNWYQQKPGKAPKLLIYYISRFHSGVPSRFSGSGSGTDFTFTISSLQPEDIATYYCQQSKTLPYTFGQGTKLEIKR | 7.30
8L2-6D5 Fab with CDR H3 mutation F108W (Fab, V domains shown, See note of m8) VH: QVQLQESGPGLVKPSETLSLTCTVSGFSLIGYDINWIRQPPGKGLEWIGMIWGDGTTDYNSALKSRVTISKDTSKNQFSLKLSSVTAADTAVYYCARGGYYYGTSYYWDYWGQGTLVTVS VL: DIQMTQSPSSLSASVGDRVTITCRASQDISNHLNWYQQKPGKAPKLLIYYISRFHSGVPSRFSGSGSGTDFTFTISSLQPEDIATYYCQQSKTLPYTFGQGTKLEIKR | 7.52
